Molecular target: aspartyl proteases, in particular, beta-secretase
Test: Ki of the compounds listed in Tables 1 and 2 (no method described)
Format: biochemical
Details: Table 1, compounds of formula Ia, W is -(CH2)n-
assay_readout: Ki (µM)

| compound | comparison_symbol | recorded_measurement |
| --- | --- | --- |
| O=C(N[C@@H](CCCCNS(=O)(=O)c1ccc(Br)cc1)C(=O)O)c1cnc2cc(C(F)(F)F)ccc2c1O | > | 50 |
| O=C(NCCCC[C@H](NS(=O)(=O)c1ccccc1[N+](=O)[O-])C(=O)O)OCC1c2ccccc2-c2ccccc21 [Compound No. 107] | = | 3.97 |
| COC(=O)[C@H](CCCCNS(=O)(=O)c1ccc(Br)cc1)NC(=O)OCC1c2ccccc2-c2ccccc21 | = | 47 |
| Cc1cc(C)c(S(=O)(=O)NCCCC[C@H](NC(=O)OCC2c3ccccc3-c3ccccc32)C(=O)O)c(C)c1 | > | 50 |
| Cc1ccc(S(=O)(=O)N(CC(C)C)C(CCCCNC(=O)OCC2c3ccccc3-c3ccccc32)C(=O)O)cc1 (racemic) | = | 0.005 |
